# Tested on: Klebsiella pneumoniae
# protocol: Antibacterial activity against extended-spectrum beta-lactamase producin Klebsiella pneumoniae 12-4 after 18 to 24 hrs by standard twofold serial dilution method
# Format: functional

{"columns": ["compound", "units.text", "MIC"],
 "data": [
  ["CCO/N=C1/CN(c2c(F)cc3c(=O)c(C(=O)O)cn([C@@H]4C[C@@H]4F)c3c2OC)CC1CN (stereo partly drawn)", "µg/mL", 128],
  ["CO/N=C1/CCN(c2c(F)cc3c(=O)c(C(=O)O)cn([C@@H]4C[C@@H]4F)c3c2Cl)CC1N (stereo partly drawn)", "µg/mL", 32],
  ["CO/N=C1/CCN(c2c(F)cc3c(=O)c(C(=O)O)cn([C@@H]4C[C@@H]4F)c3c2OC)CC1N (stereo partly drawn)", "µg/mL", 16],
  ["CO/N=C1/CN(c2c(F)cc3c(=O)c(C(=O)O)cn([C@@H]4C[C@@H]4F)c3c2OC)[C@H]1CN", "µg/mL", 16],
  ["NCC1CN(c2cc3c(cc2F)c(=O)c(C(=O)O)cn3[C@@H]2C[C@@H]2F)C/C1=N/OCc1ccccc1 (stereo partly drawn)", "µg/mL", 16],
  ["C[C@H]1COc2c(N3CCN(C)CC3)c(F)cc3c(=O)c(C(=O)O)cn1c23.C[C@H]1COc2c(N3CCN(C)CC3)c(F)cc3c(=O)c(C(=O)O)cn1c23.O [LEVOFLOXACIN]", "µg/mL", 8],
  ["CCO/N=C1/CN(c2cc3c(cc2F)c(=O)c(C(=O)O)cn3[C@@H]2C[C@@H]2F)[C@H]1CN", "µg/mL", 8],
  ["CCO/N=C1/CN(c2cc3c(cc2F)c(=O)c(C(=O)O)cn3[C@@H]2C[C@@H]2F)[C@@H]1CN", "µg/mL", 16]
]}
